Let's look at some compounds and their measured EC50.
target: F508delCFTR (Homo sapiens, UniProt P13569, DEL508-508); construct: expressed in transfected cells; host or cells: CFBE41o- (human lung derived epithelial cell line), doxycycline-inducible expression; experiment: Cell Surface Expression-Horse Radish Peroxidase (CSE-HRP) assay; assay type: cell-based; settings: CFBE41o-F508delCFTR-HRP cells; with co-corrector (2 μM of 3-[(2R,4R)-4-({[1-(2,2-difluoro-1,3-benzodioxol-5-yl)cyclopropyl]carbonyl}amino)-7-methoxy-3,4-dihydro-2H-chromen-2-yl]benzoic acid); read-out: EC50 (with co-corrector)
Sequence (P13569 with tags, fused parts or gaps DEL508-508): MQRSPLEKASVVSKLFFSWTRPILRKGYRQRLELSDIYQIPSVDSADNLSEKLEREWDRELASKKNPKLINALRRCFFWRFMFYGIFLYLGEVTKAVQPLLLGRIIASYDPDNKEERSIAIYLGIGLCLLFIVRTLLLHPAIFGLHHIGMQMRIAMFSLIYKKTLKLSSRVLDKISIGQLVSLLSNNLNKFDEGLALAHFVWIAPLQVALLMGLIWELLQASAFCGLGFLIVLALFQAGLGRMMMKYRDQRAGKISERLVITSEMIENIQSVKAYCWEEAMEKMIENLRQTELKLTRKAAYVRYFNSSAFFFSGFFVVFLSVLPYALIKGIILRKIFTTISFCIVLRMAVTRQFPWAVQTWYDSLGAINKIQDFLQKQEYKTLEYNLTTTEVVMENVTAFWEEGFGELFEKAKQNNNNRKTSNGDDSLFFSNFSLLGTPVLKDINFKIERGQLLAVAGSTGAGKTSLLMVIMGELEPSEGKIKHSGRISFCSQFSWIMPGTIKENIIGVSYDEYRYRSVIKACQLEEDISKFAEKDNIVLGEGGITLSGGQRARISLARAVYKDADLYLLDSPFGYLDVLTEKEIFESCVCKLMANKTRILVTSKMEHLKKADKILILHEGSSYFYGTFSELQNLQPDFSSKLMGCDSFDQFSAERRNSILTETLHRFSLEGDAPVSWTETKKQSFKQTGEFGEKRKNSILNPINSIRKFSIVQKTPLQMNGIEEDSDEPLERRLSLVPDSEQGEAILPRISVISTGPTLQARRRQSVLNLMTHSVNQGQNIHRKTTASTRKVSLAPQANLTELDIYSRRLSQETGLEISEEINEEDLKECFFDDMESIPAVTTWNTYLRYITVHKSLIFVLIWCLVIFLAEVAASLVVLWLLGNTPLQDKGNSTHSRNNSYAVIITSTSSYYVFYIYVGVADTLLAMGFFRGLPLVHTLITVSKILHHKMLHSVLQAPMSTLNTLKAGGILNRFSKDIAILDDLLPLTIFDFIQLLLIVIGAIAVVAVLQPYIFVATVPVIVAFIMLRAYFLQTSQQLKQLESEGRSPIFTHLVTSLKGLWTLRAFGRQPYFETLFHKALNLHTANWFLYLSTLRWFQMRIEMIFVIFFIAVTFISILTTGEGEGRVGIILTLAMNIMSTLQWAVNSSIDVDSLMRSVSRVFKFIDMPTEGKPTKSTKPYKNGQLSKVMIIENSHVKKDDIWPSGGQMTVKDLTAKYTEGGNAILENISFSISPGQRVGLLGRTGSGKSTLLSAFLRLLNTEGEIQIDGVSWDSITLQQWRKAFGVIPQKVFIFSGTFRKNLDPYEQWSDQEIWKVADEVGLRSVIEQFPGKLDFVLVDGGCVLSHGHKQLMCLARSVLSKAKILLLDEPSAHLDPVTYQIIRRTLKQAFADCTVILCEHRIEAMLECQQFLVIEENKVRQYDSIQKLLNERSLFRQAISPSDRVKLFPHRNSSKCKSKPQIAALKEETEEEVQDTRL

INSERT INTO results (compound, reported_metric, result) VALUES
  ('COc1ccc(-c2ccccc2[C@H]2[C@@H](OCc3cc(C(F)(F)F)cnc3OC)[C@H](C(C)(C)C)[C@@H](C(=O)O)N2C(=O)[C@@H]2CCCCO2)cn1', 'EC50', '1000 to 10000 nM');

In: Give a short answer stating reported EC50 for COc1nc(C(C)(C)C)ccc1CO[C@H]1[C@H](C(C)(C)C)[C@@H](C(=O)O)N(C(=O)C2CCCCC2)[C@H]1c1cccnc1OC(C)C .
Out: 1000 to 10000 nM

In: Annotate the compound COc1ncc(C(F)(F)F)cc1CO[C@H]1[C@H](C(C)(C)C)[C@@H](C(=O)O)N(C(=O)C2CCCCC2)[C@H]1c1cccc2c1OC(C)(C)C2 with its measured EC50.
Out: < 1000 nM

In: # return recorded EC50 for input COc1ccc(-c2ccccc2)cc1CO[C@H]1[C@H](C(C)(C)C)[C@@H](C(=O)O)N(C(=O)OC(C)C)[C@H]1c1ccccc1
Out: 1000 to 10000 nM

In: Provide one value: measured EC50 of COc1ncc(-c2ccccc2F)cc1CO[C@H]1[C@H](C(C)(C)C)[C@@H](C(=O)O)N(C(=O)OC(C)C)[C@H]1c1ccccc1
Out: 1000 to 10000 nM

In: For the compound COc1ncc(C(F)(F)F)cc1CO[C@H]1[C@H](C(C)(C)C)[C@@H](C(=O)O)N(C(=O)[C@H]2CCCCO2)[C@H]1c1cccc(C(C)(C)C)c1 (single isomer, unassigned) , give its reported EC50.
Out: < 1000 nM

----------
target: F508delCFTR (Homo sapiens, UniProt P13569, DEL508-508); construct: expressed in transfected cells; host or cells: CFBE41o- (human lung derived epithelial cell line), doxycycline-inducible expression; assay: Cell Surface Expression-Horse Radish Peroxidase (CSE-HRP) assay; type: cell-based; conditions: CFBE41o-F508delCFTR-HRP cells; test compound without co-corrector; 18-24 hours at 33° C.; read-out: EC50 (without co-corrector)
REPORTED_METRIC: EC50

Worked set:
INSERT INTO results (compound, result) VALUES
  ('COc1ncc(C2CCCCC2)cc1CO[C@H]1[C@H](C(C)(C)C)[C@@H](C(=O)O)N(C(=O)OC(C)C)[C@H]1c1ccccc1', '1 to 10 µM'),
  ('COc1ccccc1[C@H]1[C@@H](OCc2cc(C(F)(F)F)cnc2OC)[C@H](C(C)(C)C)[C@@H](C(=O)O)N1C(=O)[C@@H]1CCCCO1', '1 to 10 µM'),
  ('COc1ncc(C(F)(F)F)cc1CO[C@H]1[C@H](C(C)(C)C)[C@@H](C(=O)O)N(C(=O)[C@@H]2CCCO2)[C@H]1c1cccc(C2CCC2)c1', '< 1 µM'),
  ('COc1ccc(C(F)(F)F)cc1CO[C@@H]1[C@@H](C(C)(C)C)[C@H](C(=O)O)N(C(=O)N(C(C)C)C(C)C)[C@@H]1c1ccccc1 (single isomer, unassigned)', '> 10 µM'),
  ('COc1ncc(C(C)(C)C)cc1CO[C@H]1[C@H](C(C)(C)C)[C@@H](C(=O)O)N(C(=O)OC(C)C)[C@H]1c1ccccc1F', '1 to 10 µM');

Kindly review the next compound as well.
In: Find the measured EC50 of COc1cccc(S(=O)(=O)N2[C@H](C(=O)O)[C@@H](C(C)(C)C)[C@H](OCc3cc(C4CCC4)cnc3OC)[C@@H]2c2ccccc2C2CC2)n1 with F508delCFTR (Homo sapiens, UniProt P13569, DEL508-508) as test system.
Out: 1 to 10 µM

----------
target: F508delCFTR (Homo sapiens, UniProt P13569, DEL508-508); construct: expressed in transfected cells; host or cells: CFBE41o- (human lung derived epithelial cell line), doxycycline-inducible expression; assay: Cell Surface Expression-Horse Radish Peroxidase (CSE-HRP) assay; assay type: cell-based; details: CFBE41o-F508delCFTR-HRP cells; with co-corrector (2 μM); normalized to on-plate positive control; highest concentration 20 μM;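 on Maximum % activity (with co-corrector): % of on-plate positive control (2 µM of the co-corrector compound) after DMSO subtraction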
REPORTED_METRIC: Maximum % activity (with co-corrector)

INSERT INTO assay_data (compound, reported_metric, result) VALUES
  ('COc1ncc(C(F)(F)F)cc1CO[C@H]1[C@H](C(C)(C)C)[C@@H](C(=O)O)N(C(=O)OC(C)C)[C@H]1c1ccccc1C1=CCOCC1', 'Maximum % activity (with co-corrector)', '+++ (≥350)'),
  ('COc1ncc(C(F)(F)F)cc1CO[C@H]1[C@H](C(C)(C)C)[C@@H](C(=O)O)N(C(=O)[C@H]2CCCCO2)[C@H]1c1ccccc1', 'Maximum % activity (with co-corrector)', '+++ (≥350)');

----------
target: F508delCFTR (Homo sapiens, UniProt P13569, DEL508-508); construct: expressed in transfected cells; host or cells: CFBE41o- (human lung derived epithelial cell line), doxycycline-inducible expression; test: Cell Surface Expression-Horse Radish Peroxidase (CSE-HRP) assay; type: cell-based; settings: CFBE41o-F508delCFTR-HRP cells; with co-corrector (2 μM); normalized to on-plate positive control; highest concentration 20 μM;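 on Maximum % activity (with co-corrector): % of on-plate positive control (2 µM of the co-corrector compound) after DMSO subtraction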
REPORTED_METRIC: Maximum % activity (with co-corrector)

INSERT INTO assay_data (compound, reported_metric, result) VALUES
  ('COc1ncc(N2CCC(F)(F)C2)cc1CO[C@H]1[C@H](C(C)(C)C)[C@@H](C(=O)O)N(C(=O)OC(C)C)[C@H]1c1ccccc1 [Example 85]', 'Maximum % activity (with co-corrector)', '++ (≥150 and <350)'),
  ('COc1cccc(-c2cnc(OC)c(CO[C@H]3[C@H](C(C)(C)C)[C@@H](C(=O)O)N(C(=O)OC(C)C)[C@H]3c3ccccc3)c2)c1 [Example 70]', 'Maximum % activity (with co-corrector)', '++ (≥150 and <350)');

----------
biological target: F508delCFTR (Homo sapiens, UniProt P13569, DEL508-508); construct: expressed in transfected cells; host or cells: CFBE41o- (human lung derived epithelial cell line), doxycycline-inducible expression; assay: Cell Surface Expression-Horse Radish Peroxidase (CSE-HRP) assay; assay type: cell-based; conditions: CFBE41o-F508delCFTR-HRP cells; without co-corrector; normalized to on-plate positive control; highest concentration 20 μM;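 on Maximum % activity (without co-corrector): % of on-plate positive control (2 µM of the co-corrector compound) after DMSO subtraction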
REPORTED_METRIC: Maximum % activity (without co-corrector)

INSERT INTO measurements (compound, result) VALUES
  ('COc1ccccc1[C@H]1[C@@H](OCc2cc(C(F)(F)F)cnc2OC)[C@H](C(C)(C)C)[C@@H](C(=O)O)N1C(=O)[C@@H]1CCCCO1 [Example 240]', '++ (≥100 and <200)'),
  ('COc1ccc(C(F)(F)F)cc1COC1[C@@H](c2ccccc2)N(C(=O)C2CCCCC2)[C@@H](C(=O)NS(C)(=O)=O)[C@@H]1C(C)(C)C (mixture of isomers) [Example 16]', '+ (<100)'),
  ('COc1ncc(C(F)(F)F)cc1CO[C@H]1[C@H](C(C)(C)C)[C@@H](C(=O)O)N(C(=O)[C@@H]2CCCO2)[C@H]1c1cccc(Cl)c1 [Example 119]', '++ (≥100 and <200)'),
  ('COc1ccc(C(F)(F)F)cc1COC1[C@@H](c2ccccc2OC)N(C(=O)C2CCCCC2)[C@@H](C(=O)O)[C@@H]1C(C)(C)C (mixture of isomers) [Example 13]', '+ (<100)'),
  ('COc1ncc(C2(C)CC2)cc1CO[C@H]1[C@H](C(C)(C)C)[C@@H](C(=O)O)N(C(=O)C2CCCCC2)[C@H]1c1cccnc1OC(C)C [Example 287]', '++ (≥100 and <200)'),
  ('COc1ccc(Br)cc1CO[C@H]1[C@H](C(C)(C)C)[C@@H](C(=O)O)N(C(=O)OC(C)C)[C@H]1c1ccccc1 [Example 36]', '++ (≥100 and <200)');

Shift focus to the following entry.
In: Fill in Maximum % activity (without co-corrector) for record COc1cc(C(F)(F)F)ccc1CO[C@H]1[C@H](C(C)(C)C)[C@@H](C(=O)O)N(C(=O)[C@H]2CCC[C@H](OC)C2)[C@H]1c1ccccc1 [Example 32]
Out: + (<100)
